Source listed as the supplement of paper PMC10883282.

System: HS729
ASSAY_PROTOCOL: relative viability vs DMSO control (72 h) (fraction); higher = more viable cells
SETTINGS: 0.1235 µM
We label by threshold. Values of relative viability strictly beneath 0.9 are YES. Values of 0.9 and up are NO.

[ask] Hello, I'm reviewing records and need to know if relative viability of C1=N/C2=N/c3ccc(OCCN4CCCC4)c(c3)COC/C=C/COCc3cccc(c3)C(=C1)N2 [Pacritinib] is below 0.9. Could you check?
[reply] NO

[ask] API: query returns whether the compound falls strictly under 0.9 in relative viability. Query: CCN(c1cc(-c2ccc(CN3CCOCC3)cc2)cc(C(=O)NCc2c(C)cc(C)[nH]c2=O)c1C)C1CCOCC1 [Tazemetostat]
[reply] NO

[ask] I wonder whether COc1cc2nccc(Oc3ccc(NC(=O)NC4CC4)c(Cl)c3)c2cc1C(N)=O [Lenvatinib] has relative viability below 0.9. Can you tell?
[reply] NO

[ask] Item CNC(=O)c1cc(Oc2ccc(NC(=O)Nc3ccc(Cl)c(C(F)(F)F)c3)cc2)ccn1 [Sorafenib] : relative viability beneath 0.9, strictly?
[reply] NO

[ask] Given the entry CN1CCN(CCOc2cc(OC3CCOCC3)c3c(Nc4c(Cl)ccc5c4OCO5)ncnc3c2)CC1 [Saracatinib] , would its reported relative viability be below 0.9?
[reply] YES

[ask] For COc1cc(Nc2c(C#N)cnc3cc(OCCCN4CCN(C)CC4)c(OC)cc23)c(Cl)cc1Cl [Bosutinib] , is the recorded relative viability below the cut-off of 0.9?
[reply] NO

====

Tested on: G401
ASSAY_PROTOCOL: relative viability vs DMSO control (72 h) (fraction); higher = more viable cells
SETTINGS: 10 µM
Binarize relative viability at 0.4; below is rule met, at or above is rule not met.

[ask] Criterion: relative viability strictly below 0.4. Is it met by `COc1cc(OC)cc(N(CCNC(C)C)c2ccc3ncc(-c4cnn(C)c4)nc3c2)c1` ?
[reply] rule met

[ask] Would you kindly verify if relative viability of `COc1cc2nccc(Oc3ccc(NC(=O)NC4CC4)c(Cl)c3)c2cc1C(N)=O` is strictly less than 0.4?
[reply] rule met

[ask] For `NC(=O)c1cccc2cn(-c3ccc([C@@H]4CCCNC4)cc3)nc12` , is the recorded relative viability below the cut-off of 0.4?
[reply] rule not met

[ask] Strictly below 0.4: is that where relative viability of `COc1cc2ncnc(Nc3ccc(F)c(Cl)c3)c2cc1NC(=O)/C=C/CN1CCCCC1` sits?
[reply] rule met

[ask] # TODO verify relative viability < 0.4 strictly for this compound: `N#CCC1(n2cc(-c3ncnc4[nH]ccc34)cn2)CN(C2CCN(C(=O)c3ccnc(C(F)(F)F)c3F)CC2)C1`
[reply] rule not met

[ask] Just wondering, is relative viability of `COc1cc2c(Oc3ccc4[nH]c(C)cc4c3F)ccnc2cc1OCC1(N)CC1` below 0.4?
[reply] rule met

[ask] Below 0.4 on relative viability? Entry `CCCCCCCCCCCCCCCCCCOP(=O)([O-])OC1CC[N+](C)(C)CC1`
[reply] rule not met

[ask] # TODO verify relative viability < 0.4 strictly for this compound: `C#Cc1cccc(Nc2ncnc3cc(OCCOC)c(OCCOC)cc23)c1`
[reply] rule not met

[ask] Record `CO[C@H]1C[C@@H]2CC[C@@H](C)[C@@](O)(O2)C(=O)C(=O)N2CCCC[C@H]2C(=O)O[C@H]([C@H](C)C[C@@H]2CC[C@@H](O)[C@H](OC)C2)CC(=O)[C@H](C)/C=C(\C)[C@@H](O)[C@@H](OC)C(=O)[C@H](C)C[C@H](C)/C=C/C=C/C=C/1C` : is its relative viability strictly below 0.4?
[reply] rule not met

[ask] Consider the compound `NC(=O)c1cnc2[nH]ccc2c1N[C@@H]1[C@@H]2CC3C[C@H]1C[C@@](O)(C3)C2` . Is its relative viability strictly less than 0.4?
[reply] rule not met

[ask] Confirm or reject: relative viability of `FC(F)(F)c1ccc(CNc2ccc(Cc3c[nH]c4ncc(Cl)cc34)cn2)cn1` lies strictly below 0.4
[reply] rule not met

[ask] For `CCCS(=O)(=O)N[C@H]1C[C@@H](N(C)c2ncnc3[nH]ccc23)C1` , is the recorded relative viability below the cut-off of 0.4?
[reply] rule not met

[ask] Regarding COc1cc2nccc(Oc3ccc(NC(=O)C4(C(=O)Nc5ccc(F)cc5)CC4)cc3)c2cc1OC [Cabozantinib] , kindly confirm whether its relative viability is beneath 0.4.
[reply] rule met

[ask] Determine if `COc1cc2ncnc(Nc3cccc(Cl)c3F)c2cc1OC(=O)N1CCN(C)C[C@H]1C` shows relative viability strictly lower than 0.4.
[reply] rule not met

[ask] Decide: relative viability of `CN1CCN(CCOc2cc(OC3CCOCC3)c3c(Nc4c(Cl)ccc5c4OCO5)ncnc3c2)CC1` strictly below 0.4?
[reply] rule not met

[ask] Confirm or reject: relative viability of `C1=N/C2=N/c3ccc(OCCN4CCCC4)c(c3)COC/C=C/COCc3cccc(c3)C(=C1)N2` lies strictly below 0.4
[reply] rule met

====

System: HT1080
ASSAY_PROTOCOL: relative viability vs DMSO control (72 h) (fraction); higher = more viable cells
SETTINGS: 0.00457 µM
For each entry below, report its relative viability value.
// return a plain number; no unit text

The measured relative viability that `Cc1ccc(NC(=O)c2ccc(CN3CCN(C)CC3)cc2)cc1Nc1nccc(-c2cccnc2)n1` showed for HT1080 is 1.02

GET /values?item= `COc1cc(OC)cc(N(CCNC(C)C)c2ccc3ncc(-c4cnn(C)c4)nc3c2)c1` &system= HT1080 returns relative viability: 1.07

Form: item `Cc1c(F)cc(C(=O)NC2CC2)cc1-c1ccc(C(=O)NCC(C)(C)C)cn1` ; test system HT1080; relative viability: 1.11

# relative viability measured on HT1080 for item `Cc1cn(-c2cc(NC(=O)c3ccc(C)c(Nc4nccc(-c5cnccn5)n4)c3)cc(C(F)(F)F)c2)cn1` = 1.07

====

System: A204
ASSAY_PROTOCOL: relative viability vs DMSO control (72 h) (fraction); higher = more viable cells
SETTINGS: 0.01372 µM
Please go through the items and note down their relative viability.
Give the figure by itself; no unit, no explanation.

Measured relative viability, `NC(=O)c1cnc2[nH]ccc2c1N[C@@H]1[C@@H]2CC3C[C@H]1C[C@@](O)(C3)C2` : 1.06

Entry under test: `C[C@H]1Oc2cc(cnc2N)-c2c(nn(C)c2C#N)CN(C)C(=O)c2ccc(F)cc21` . Its relative viability was 1.1

Sure, the documented relative viability for `Cc1ccc(C(=O)OCc2ccc([C@@H](CN)C(=O)Nc3ccc4cnccc4c3)cc2)c(C)c1` is 1.01

Per the record, `CCCCCCCCCCCCCCCCCCOP(=O)([O-])OC1CC[N+](C)(C)CC1` has relative viability of 1.06

Recorded result, `CN1CCN(CCOc2cc(OC3CCOCC3)c3c(Nc4c(Cl)ccc5c4OCO5)ncnc3c2)CC1` , relative viability: 1.04

Lab note: `COc1cc(OC)cc(N(CCNC(C)C)c2ccc3ncc(-c4cnn(C)c4)nc3c2)c1` gave relative viability of 0.746

The recorded relative viability for `FC(F)(F)c1ccc(CNc2ccc(Cc3c[nH]c4ncc(Cl)cc34)cn2)cn1` is 1.07

Memo: `CCN(CCCOc1ccc2c(Nc3cc(CC(=O)Nc4cccc(F)c4)[nH]n3)ncnc2c1)CCOP(=O)(O)O` , reported relative viability: 0.987

Item: `CCN(c1cc(-c2ccc(CN3CCOCC3)cc2)cc(C(=O)NCc2c(C)cc(C)[nH]c2=O)c1C)C1CCOCC1` | relative viability: 1.03

Item: `C[C@@H]1COC(Nc2ccc3ncnc(Nc4ccc(OCc5nccs5)c(Cl)c4)c3c2)=N1` | relative viability: 1.08

====

Kindly supply the reported relative viability values for the records listed here.
Test system: SYO-1
ASSAY_PROTOCOL: relative viability vs DMSO control (72 h) (fraction); higher = more viable cells
SETTINGS: 0.1235 µM
Enter the number alone.

Looking up `CO[C@H]1C[C@@H]2CC[C@@H](C)[C@@](O)(O2)C(=O)C(=O)N2CCCC[C@H]2C(=O)O[C@H]([C@H](C)C[C@@H]2CC[C@@H](O)[C@H](OC)C2)CC(=O)[C@H](C)/C=C(\C)[C@@H](O)[C@@H](OC)C(=O)[C@H](C)C[C@H](C)/C=C/C=C/C=C/1C` , I see its relative viability listed as 0.767

relative viability recorded for this molecule, `NC(=O)c1cccc2cn(-c3ccc([C@@H]4CCCNC4)cc3)nc12` , is 0.832

response.value for `CO[C@@H]1[C@H](N(C)C(=O)c2ccccc2)C[C@H]2O[C@]1(C)n1c3ccccc3c3c4c(c5c6ccccc6n2c5c31)C(=O)NC4` (field: relative viability) = 0.676

Record summary for `CCN(CCCOc1ccc2c(Nc3cc(CC(=O)Nc4cccc(F)c4)[nH]n3)ncnc2c1)CCOP(=O)(O)O` : reported relative viability = 0.397

Quick note, relative viability for `CN(C)C[C@@H]1CCn2cc(c3ccccc32)C2=C(C(=O)NC2=O)c2cn(c3ccccc23)CCO1` landed at 0.899

// recorded relative viability for `C#Cc1cccc(Nc2ncnc3cc(OCCOC)c(OCCOC)cc23)c1` : 0.967
